Would you kindly list T70/T50 for each of these molecules?
# assayRemarks: Ketose 3-epimerase activity ratio (T70/T50) at reaction temperature of 70° C. to 50° C.
# Assay type: biochemical
# measurementContext: crude recombinant enzyme; ratio of activity at 70° C. to activity at 50° C., 10 min reaction
# Text: An enzyme having higher heat resistance than an amino acid substitution-free wild type enzyme can be obtained by introducing mutation into the gene of the ketose 3-epimerase of the present invention and substituting the corresponding amino acid residue with another amino acid residue by a site-directed mutagenesis operation to prepare various amino acid-substituted mutants. […]
Give bare numbers.

Some solved entries appear below for comparison.
INSERT INTO measurements (molecule, experimentalreadout, recordedmeasurement) VALUES
  ('Ketose 3-epimerase mutant 6: amino acid-substituted mutant of SEQ ID NO: 1 (protein, Arthrobacter histidinolovorans) MKIGCHGLVWTGRFDAEGIRYSVQKTKEAGFDLIEFPLMDPFSFDVATAKSALAEHGLTASASLGLSEATDVSSEDPAIVKAGEELLNRALDVLAELGATDFCGVIYSAMKKYMEPATEQGLSNSKAAVGRVVDRAAGLGINVSLEVVNRYETNVLNTGRQALSYLSDVKRPNLGVHLDTYHMNIEESDMFSPVLDTAEALKYVHIGESHRGYLGTGNVDFDNFFKALGRIGYDGPVVFESFSSAVVAPDLSRMLGIWRNLWADNEELGAHANAFIRDKLTAIKTIELH', 'T70/T50', 2.05),
  ('Ketose 3-epimerase mutant 14: amino acid-substituted mutant of SEQ ID NO: 1 (protein, Arthrobacter histidinolovorans) MKIGCHGLVWTGRFDAEGIRYSVQKTKEAGFDLIEFPLMDPFSFDVATAKSALAEHGLTASASLGLSEATDVSSEDPAIVKAGEELLNRALDVLAELGATDFCGVIYSAMKKYMEPATEQGLSNSKAAVGRVVDRAAGLGINVSLEVVNRYETNVLNTGRQALSYLSDVKRPNLGVHLDTYHMNIEESDMFSPVLDTAEVLKYVHIGESHRGYLGTGSVDFDNFFKALGRIGYDGPVVFESFSSAVVAPDLSRMLGIWRNLWADNEELGAHANAFIRDKLTAIKTIELH', 'T70/T50', 1.91),
  ('Ketose 3-epimerase mutant 28: amino acid-substituted mutant of SEQ ID NO: 1 (protein, Arthrobacter histidinolovorans) MKIGCHGLVWTGRFDAEGIRYSVQKTKEAGFDLIEFPLMDPFSFDVATAKSALAEHGLTASASLGLSEATDVSSEDPAIVKAGEELLNRALDVLAELGATEFCGVIYSAMKKYMEPATEQGLSNSKAAIGRVVDRAAGLGINVSLEVVNRYETNVLNTGRQALSYLSDVKRPNLGVHLDTYHMNIEESDMFSPVLDTAEVLKYVHIGESHRGYLGTGNVDFDNFFKALGRIGYDGPVVFESFSSAVVAPDLSRMLGIWRNLWADNEELGAHANAFIRDKLTAIKTIELH', 'T70/T50', 1.62);

Record Ketose 3-epimerase mutant 34: amino acid-substituted mutant of SEQ ID NO: 1 (protein, Arthrobacter histidinolovorans) MKIGCHGLVWTGRFDAEGIRYSVQKTKEAGFDLIEFPLMDPFSFDVATAKSALAEHGLTASASLGLSEATDVSSEDPAIVKAGEELLNRALDVLAELGATDFCGVIYSAMKKYMEPATEQGLSNSKAVVGRVVDRAAGLGINVSLEVVNRYETNVLNTGRQALSYLSDVKRPNLGVHLDTYHMNIEESDMFSPVLDTAEALKYVHIGESHRGYLGTGSVDFDNFFKALGRIGYDGPVVFESFSSAVVAPDLSRMLGIWRNLWADNEELGAHANAFIRDKLTAIKTIELH , field T70/T50: 1.38
